biological target: Alpha-2C adrenergic receptor (Homo sapiens); experiment: compounds altering alpha2C-coupled GIRK flux – cell-based, HEK293 alpha2C/GIRK1/2, thallium flux, primary screen (AID 624); details: thallium flux BTC fluorescence, at 10 µM, actives lie on both sides;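 note: slope of fluorescence ratio to pre-addition baseline per second over 15 to 24 s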
Entries whose slope is below 0.005 take T; entries at or above 0.005 take F.

Example cases with answers are listed next.
                                   compound  cat
0        Oc1ccccc1-c1cc(C(F)(F)C(F)F)[nH]n1    F
1  COc1ccc(-c2cc3ccc(OCc4nn[nH]n4)cc3oc2=O)cc1    T
2                Fc1cccc(NCc2cn3ccccc3n2)c1    F
3  O=C1NC2(Nc3ccccc31)C(=O)Nc1ccccc12 (configuration not stated)    T
4   CCCCN(CC)CCNC(=O)c1cc2c(C)nc3ccccc3c2o1    F
5    C=CCNC(=O)CSc1nc2sc(C)c(C)c2c(=O)[nH]1    F

[Q] Given Cc1cc(C)n(C2=NS(=O)(=O)c3ccccc32)n1 , is recorded slope strictly lower than 0.005?
[A] T

[Q] Given Cc1occc1-c1nc(-c2ccncc2)no1 , is recorded slope strictly lower than 0.005?
[A] F

[Q] Given Cc1ccc(S(=O)(=O)N2CCN(S(C)(=O)=O)C2c2ccccc2)cc1 (configuration not stated) , is recorded slope strictly lower than 0.005?
[A] F

[Q] Given COc1cc(CN2CCN(C(=O)CC(C)C)CC2)cc(OC)c1O , is recorded slope strictly lower than 0.005?
[A] F

[Q] Given COC(=O)C1=C(C)NC2=C(C(=O)CCC2)C1c1coc2ccccc2c1=O (configuration not stated) , is recorded slope strictly lower than 0.005?
[A] F

----------
test: endothelial E-selectin expression blockers – imaging, HUVEC, immunofluorescence, MLSMR starter and 10KST1 sets, primary screen (AID 487); conditions: HUVEC TNFalpha-induced E-selectin immunofluorescence imaging, at 2 µM; measured here: cell number, toxicity;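 note: 100% = median nuclei count of all wells on the same plate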
Property label: nuclei count (%)
Numbers only, in %.

>>> df
                                   compound  property_label  experimental_value
0  Nc1nc(N2CCCCC2)nc(N(c2ccccc2)c2ccccc2)n1    nuclei count                91.6
1            CCOC(=O)c1ccccc1NC(=O)c1cccnc1    nuclei count                 135
2       CCCc1cc(C(=O)Nc2sc3c(c2C#N)CCC3)no1    nuclei count                 116

Respectfully, I request nuclei count for each entry included below.
1. Cn1c(SCC(=O)c2cc3ccccc3o2)nnc1-c1ccccc1
2. O=C(COC(=O)CCC1CCCC1)Nc1ccc(Cl)cn1

[A]
[106, 108]

Respectfully, I request nuclei count for each entry included below.
1. Cc1occc1-c1nc(-c2ccncc2)no1
2. COc1ccccc1CNC(=O)C1CCCN(S(=O)(=O)c2cccc3cccnc23)C1 (configuration not stated)
3. Cc1cc(C)cc(NC(=O)C2CCCN(c3nccc(C)n3)C2)c1 (configuration not stated)
4. COc1cccc(-c2nnc(NC(=O)c3ccccc3Br)o2)c1
5. CC(=O)Nc1cccc(NC(=O)c2oc3ccccc3c2C)c1
6. N#Cc1ccc(COC(=O)Cn2nnc(-c3ccccc3)n2)cc1
7. COc1ccc(C(CNC(=O)c2cc(C)oc2C)N2CCOCC2)cc1 (configuration not stated)

[A]
[126, 108, 117, 117, 112, 121, 145]

----------
experiment: inhibitors of TNFa-induced NFkB p65 translocation, primary screen, imaging, HUVEC, MLSMR starter and 10KST1 sets (AID 438); conditions: HUVEC TNFa-induced p65 nuclear translocation; at 2 µM, stronger effect = higher value, 0% TNFa-plus-vehicle, 100% no-TNFa wells;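 note: compound added about 3h40 before a 20 min TNFalpha stimulation; signal is the nuclear over cytoplasmic p65 intensity ratio per well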
Short version: inhibition at least -10% is Condition met, less is Condition not met.

Example cases with answers are listed next.
In [3]: df
Out[3]:
                                   molecule                cat
0  CC(NS(=O)(=O)c1ccc(F)cc1)C(c1cccs1)N1CCN(C)CC1 (stereo not given)      Condition met
1       CCCc1nnc2n1N=C(c1ccc(OC)c(OC)c1)CS2  Condition not met
2  O=C(COC(=O)C12CC3CC(CC(O)(C3)C1)C2)N1CCN(S(=O)(=O)c2ccc(Cl)cc2)CC1      Condition met
3  CCSC1=C(C#N)C(c2ccccc2OC)CC(=O)N1 (stereo not given)      Condition met
4  CCCC(=O)Nc1cccc(NC(=O)CN2CCN(c3ccccc3OC)CC2)c1  Condition not met
5  Cn1c(C(=O)N2CCN(C(=O)c3ccco3)CC2)cc2c(=O)n3ccccc3nc21      Condition met
6  Cc1cc(C)nc(/N=C2\NC(=O)CC(C(=O)O)N2c2ccc(Cl)cc2)n1 (stereo not given)      Condition met
7          CN(C)C(=O)N1CCN(C(=O)c2ccco2)CC1  Condition not met

[Q] Item Cc1cc(-n2c(C)cc(C(=O)CSc3nc4ccccc4c(=O)n3Cc3ccco3)c2C)no1 with inhibition of -10% or above?
[A] Condition met

[Q] Item O=C(NC1=NCCS1)NC12CC3CC(CC(C3)C1)C2 with inhibition of -10% or above?
[A] Condition met

----------
biological target: Voltage-gated potassium channel subunit beta-2 (Rattus norvegicus) (UniProt P62483); assay: inhibitors of rat Kvbeta2 reductase activity – biochemical, NADPH fluorescence, primary screen (AID 622); conditions: recombinant KvBeta, 4-cyanobenzaldehyde reduction, at 10 µM, stronger effect = higher value;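 note: slope of raw intensity against log time taken from 70 to 1610 s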
Sequence (P62483 whole entry, looked up): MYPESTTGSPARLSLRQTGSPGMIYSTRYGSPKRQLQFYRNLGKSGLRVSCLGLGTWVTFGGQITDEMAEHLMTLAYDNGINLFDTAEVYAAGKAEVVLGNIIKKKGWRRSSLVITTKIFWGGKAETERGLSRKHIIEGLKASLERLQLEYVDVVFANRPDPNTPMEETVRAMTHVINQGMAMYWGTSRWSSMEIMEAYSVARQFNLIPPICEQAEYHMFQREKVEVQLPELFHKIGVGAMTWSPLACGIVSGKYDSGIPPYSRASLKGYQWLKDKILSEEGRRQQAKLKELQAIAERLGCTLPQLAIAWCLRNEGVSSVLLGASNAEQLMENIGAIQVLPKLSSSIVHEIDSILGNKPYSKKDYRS
Active and inactive are the calls of the source.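 Rule for the calls: active = fluorescence slope higher than the sample average by over 3 SD (cut at about -0.22 in these data, passing the limit was not always enough); inactive = the rest.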
Property label: fluorescence slope

These solved cases illustrate the format of a correct answer.
In [3]: df
Out[3]:
                                   molecule      property_label  experimental_value
0  CCC(Sc1nc2sc(C(=O)OC)c(C)c2c(=O)n1N)C(=O)NCC1CCCO1 (stereo unspecified)  fluorescence slope   -0.592 (inactive)
1  CC1=C(C(=O)OC2CCCCC2)C(c2ccc(C)o2)C2=C(CC(C)(C)CC2=O)N1 (stereo unspecified)  fluorescence slope    -0.25 (inactive)
2          CC1CCN(C(=O)Cn2cc3c(n2)CCCC3)CC1  fluorescence slope   -0.612 (inactive)
3          CN(C)C(=O)N1CCN(C(=O)c2ccco2)CC1  fluorescence slope   -0.601 (inactive)

Respectfully, I request fluorescence slope for each entry included below.
1. Cc1cc(=O)n(CCO)c(O)c1C#N
2. CC(C)(C)NC(=O)CN(C(=O)CS(=O)CC(=O)Nc1ccc(F)cc1)c1ccc(Cl)cc1 (stereo unspecified)
3. CC(=O)C1=C(C)NC(SCSc2ccccc2)=C(C#N)C1c1cccnc1 (stereo unspecified)
4. C=CCN1C(=O)C2(C(C#N)=C(N)Oc3n[nH]c(CCC)c32)c2ccccc21 (stereo unspecified)
5. COc1cccc(C2CC(c3ccc(F)cc3)Nc3nc(N)nn32)c1 (stereo unspecified)
6. O=C(Nc1ncc(Cc2ccccc2)s1)C1CCCO1 (stereo unspecified)

[A]
["-0.351 (inactive)", "-0.35 (inactive)", "-0.475 (inactive)", "-0.625 (inactive)", "-0.501 (inactive)", "-0.563 (inactive)"]

[Q] Give its fluorescence slope value. Item: COc1cccc(CNC(=O)CCS(=O)(=O)c2cccc3nsnc23)c1
[A] -0.513 (inactive)

----------
assay: TLR3 IRF3 reporter activation blockers – cell-based, poly I:C stimulus, luciferase, 10K MLSCN set, primary screen (AID 602277); conditions: HEK293-TLR3 RL24 IRF3 luciferase reporter, at 10 µM, stronger effect = higher value
Active and inactive are the calls of the source.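 The calls were made as follows: active = inhibition of the reporter signal at or above 50%; inactive = inhibition below 50%.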
Give measured inhibition for each item. Keep answers brief.

In [3]: df
Out[3]:
                                   molecule  experimental_value
0  CCN(CCNC(=O)CS(=O)(=O)Cc1nc(-c2cccc(OC)c2)oc1C)c1ccccc1    20.1% (inactive)
1  Cn1c(SCC(=O)Nc2ccc3c(c2)oc2ccccc23)nnc1-c1ccccc1   -25.5% (inactive)
2  COc1ccccc1-n1c(=O)[nH]c2c(C(N)=O)nc(CC(C)C)nc21    32.3% (inactive)
3  CC(=O)c1ccccc1NS(=O)(=O)c1c(C)nn(-c2ccccc2)c1C      98.9% (active)
4      CCOC(=O)c1sc(Nc2nc3c(OC)cccc3s2)nc1C   -60.9% (inactive)

Respectfully, I request inhibition for each entry included below.
1. CCOC(=O)CSc1nnc(-c2ccc(Cl)cc2Cl)o1
2. CC(=O)Nc1c(C(=O)O)[nH]c2ccccc12
3. CS(=O)(=O)N1CCCC(C(=O)N2CCOCC2)C1 (stereo unspecified)
4. Cc1ccc(CCNC(=O)CC2Oc3ccc(C)cc3NC2=O)cc1 (stereo unspecified)
5. CN(C)CCCN1C(=O)C(=O)/C(=C(/O)c2ccncc2)C1c1cccc(Br)c1 (stereo unspecified)
6. COC(=O)c1[nH]c2ccc(C)cc2c1NC(=O)CN1CCCc2ccccc21

[A]
2.18% (inactive)
19.4% (inactive)
3.97% (inactive)
2.52% (inactive)
-3.17% (inactive)
12% (inactive)
